Target: Vitamin D3 receptor (Homo sapiens) (UniProt P11473)
Sequence (P11473 whole entry, looked up): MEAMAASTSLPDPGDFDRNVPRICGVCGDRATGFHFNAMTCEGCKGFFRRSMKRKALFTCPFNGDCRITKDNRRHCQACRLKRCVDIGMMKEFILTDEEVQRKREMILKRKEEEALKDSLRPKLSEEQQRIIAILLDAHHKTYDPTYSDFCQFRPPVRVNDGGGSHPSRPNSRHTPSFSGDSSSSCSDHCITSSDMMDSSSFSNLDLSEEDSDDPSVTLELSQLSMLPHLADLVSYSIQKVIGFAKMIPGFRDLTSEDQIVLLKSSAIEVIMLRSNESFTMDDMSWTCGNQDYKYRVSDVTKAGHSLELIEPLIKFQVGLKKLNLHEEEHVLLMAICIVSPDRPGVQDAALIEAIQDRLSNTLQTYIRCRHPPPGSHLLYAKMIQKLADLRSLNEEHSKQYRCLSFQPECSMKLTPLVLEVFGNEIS
Test: qHTS assay to identify small molecule antagonists of the vitamin D receptor (VDR) signaling pathway (AID 743223)
Conditions: VDR-UAS-bla HEK293T, beta-lactamase FRET ratio, 16 h; series mostly up to 61 µM
Records with an inconclusive call do not appear. Calls of active or inactive are those of the source. Calls come from the whole dose curve; as a rule, active = well fitted inhibition curve with a large enough effect in the signal ratio in the repeat runs (not every such curve was filed as active); inconclusive = weak or mixed curves, or effect the other way; inactive = no such curve, though single readings can be large or run the other way; the % refers to the signal ratio.
Readout kind: outcome

Examples with answers:
[[record]]
compound = "CSc1ccc(Cl)cc1"
readout_kind = "outcome"
readout_value = "inactive"

[[record]]
compound = "OC1C(O)C(O)C(O)C(O)C1O (stereo not given)"
readout_kind = "outcome"
readout_value = "inactive"

[[record]]
compound = "CN(C)CCOC(=O)COc1ccc(Cl)cc1"
readout_kind = "outcome"
readout_value = "inactive"

[[record]]
compound = "CC(=O)CC(C)(C)O"
readout_kind = "outcome"
readout_value = "inactive"

[[record]]
compound = "c1ccc2c(c1)Cc1ccccc1-2"
readout_kind = "outcome"
readout_value = "inactive"

[[record]]
compound = "COC(=O)c1cccnc1"
readout_kind = "outcome"
readout_value = "inactive"

[[record]]
compound = "CC(C)c1cccc(C(C)C)c1"
readout_kind = "outcome"
readout_value = "inactive"

[[record]]
compound = "CC(=O)OCCOC(C)=O"
readout_kind = "outcome"
readout_value = "inactive"

[[record]]
compound = "C=C(C)[C@H]1CC=C(C)C(=O)C1"
readout_kind = "outcome"
readout_value = "inactive"

[[record]]
compound = "CCCOC(=O)c1ccccc1"
readout_kind = "outcome"
readout_value = "inactive"


Record outcome per entry; entries follow.
1. O=C1CCCC1
2. C[C@]12CC[C@@H]3c4ccc(O)cc4CC[C@H]3[C@@H]1C[C@@H](O)[C@@H]2O
3. COc1cc(OC)c(C(=O)CCCN2CCCC2)c(OC)c1
4. Brc1ccc(Br)c(Br)c1

Output:
1: inactive; 2: inactive; 3: inactive; 4: inactive
